- assay notes: Antiproliferative activity against human MCF10A cells after 48 hrs by SRB assay
- Format: cell-based, MCF-10A
quantity measured: GI50 at 48 h (µM)

1) CCCCC(C#CC(=O)OC)O/C=C/C(=O)OC (stereo unspecified) : 34
